OUTCOME MEASURE: melting point

Solved entries (count: 2):
COc1ccc2c(c1O)CC(C(=O)O)N(C(=O)N(C)c1ccccc1)C2 (racemic) | 235 to 255 °C
CCCCCCCCCCCCCCCCCCOC(=O)CP(=O)(OCC)OCC | 28 to 31 °C

Here is another compound to look at.
query: State the recorded melting point for this entry: CCCCCS(=O)(=O)NC(=O)/C=C/c1ccc(OCCOC)cc1NC(=O)c1ccc(F)cc1F
result: 140 to 141 °C

* * *

OUTCOME MEASURE: melting point

Past entries and their recorded results:
Oc1nc(Cc2ccc(F)cc2)ncc1F | 169 to 170 °C
CCOC(=O)c1cn(CCF)c2nc(SCC)c(F)cc2c1=O | 271 to 273 °C
CC[C@H]1[C@@H](O)[C@H](C)C(=O)N1c1ccc(C#N)c(OC)c1 | 78 to 81 °C
Cc1cccc2c(C(CO)=C3SC(=O)NC3=O)cccc12 | 160 to 161 °C
O=C(N[C@H](Cc1ccc(C(F)(F)F)cc1)[C@@H](O)c1ccccc1F)c1ccc(F)c2ccccc12 (racemic) | 190 to 191 °C

Now consider a different molecule.
query: Quick check: melting point of O=c1ccc2c(F)cc(F)cc2[nH]1 ?
result: 292 to 318 °C

* * *

OUTCOME MEASURE: melting point

As a guide, the following entries are already answered.
COC(=O)n1c(=O)oc2c(Cl)c(Cl)c(Cl)cc21 | 163 to 164 °C
Nc1c(Cl)c(C(F)(F)F)nn1-c1c(Cl)cc(C(F)(F)F)cc1Cl | 99 to 100 °C
CCC(=O)n1c(=O)[nH]c(=O)n1C(=O)CC | 208 °C
Cc1ccc(CNc2nc(Nc3cccc(C(F)(F)F)c3)nc(OCC(F)(F)F)n2)o1 | 72 to 74 °C

query: Look at this compound and give its reported melting point. C1=Cc2c(ccc3cccnc23)OC1
result: 207 to 208 °C

query: What does the data say about its melting point? Entry: CNC(=O)Oc1ccc(N=Cc2ccccc2O)c2c1OC(C)(C)C2
result: 201 to 203 °C

* * *

OUTCOME MEASURE: melting point

// known answers, use as guide
O=C(O)CNC(=O)c1ncc2c(Cl)cccc2c1O | 232 °C
CC(=O)OCN1C(=O)CON(C(C)=O)C1c1ccccc1 (stereo unspecified) | 75 to 76 °C
Oc1ccc(F)nc1I | 96 to 98 °C
C[C@@H]1N(c2ccc(C#N)c(Cl)c2)C(=O)C[C@@]1(O)C1CC1 | 93 to 100 °C

query: Fill blank: measured melting point of the molecule CCN1CCN(C(=O)c2ccc(-c3cc(-c4c(-c5cccc(C)n5)nc5c(C)cccn45)ccn3)cc2)CC1 is ____.
result: 212 °C

query: Look up melting point: NC(=O)c1c(N)cccc1OCc1ccccc1
result: 158 to 160 °C

* * *

List of melting point values.

Please review the entries below; each comes with its answer.
COC(=O)CCc1ccc(C(=O)O)cc1 | 146 to 148 °C
O=C(Cn1ccnc1[N+](=O)[O-])NCCO | 164 to 165 °C
CC(C)SN1N=C(c2ccccc2)C(SC(C)C)(SC(C)C)C1=O | 66 to 67 °C
COC(=O)CCC(=O)c1ccc(CCNC(C)=O)cc1 | 120 °C
C=CCOCC(O)CN1CCN(c2nc(-c3ccccc3)nc3ccccc23)CC1 (stereo unspecified) | 85 to 87 °C

Alright, here's another compound for you.
query: What melting point value was documented for this compound, O=C(O)C1c2ccccc2N=C(N2CCCCC2)N1c1ccccc1 (stereo unspecified) ?
result: 238 °C

* * *

OUTCOME MEASURE: melting point (°C)

CCOC(=O)c1ncn2c1CN(Cc1ccc(OC)cc1OC)C(=O)c1sccc1-2 | 168
CC(C)(C)OC(=O)NCCCCCCNC(=O)c1cccc(-c2nc(=O)c3ccccc3s2)n1 | 145

* * *

Reported melting point values follow for various compounds

Please review the entries below; each comes with its answer.
O=C(CN1CCN(c2ccc(CO)c(Cl)c2)CC1)c1cc2ccccc2o1 | 169 to 172 °C
COCCOc1ccc(CCC(=O)NS(N)(=O)=O)c(Oc2ncc(C(F)(F)F)cc2Cl)c1 | 158 to 159 °C
c1ccc(NCP2CN(c3ccccc3)CN(c3ccccc3)C2)cc1 | 96 to 97 °C
CC(C)(C)OC(=O)NCc1ccc2c(c1)CNC2 | 114 to 115 °C
O=C(NCC12CC3CC(CC(C3)C1)C2)c1cc(Cl)ccc1Cl | 161 to 162 °C

query: Look up melting point for this compound: CN(C)C(=O)Nc1scc(C(C)(C)C)c1C#N
result: 140 °C

* * *

The following compounds are listed with their measured melting point values.

Reference set, count: 8
CCCN(C(N)=S)c1ccc(Cl)cc1Cl | 121 °C
COc1ccc(CC2Cc3cc(C)cnc3C(O)C2)cc1 (single isomer, unassigned; (+)) | 132 to 134 °C
CCOC(=O)C(Cc1ccc(C(=O)C(C)(C)C)cc1)(Cc1ccc(C(=O)C(C)(C)C)cc1)C(=O)OCC | 65 to 67 °C
COc1ccc2c(c1)C(O)(CCNC(C)=O)CCC2 (centres undefined) | 106 to 109 °C
NC(Cc1ccccc1)C(O)C(N)Cc1ccccc1 (centres undefined) | 106 to 107 °C
CSC(=Cc1ccccc1N(Cc1ccccc1)c1c(Cl)cccc1Cl)S(C)=O (centres undefined) | 194 to 196 °C
c1ccc(N2CCNc3nc4ccccc4n3CC2)cc1 | 156 to 158 °C
O=C1N=C(N2CCCCC2)SC1=Cc1cccc(-c2ccc(O)c(C34CC5CC(CC(C5)C3)C4)c2)c1 | 311 to 312 °C

Now consider the entry below.
query: Requested read-out: melting point. Entry: C#CCOc1cc(C(=O)O)cc([N+](=O)[O-])c1-c1ccccc1
result: 145 to 147 °C

* * *

OUTCOME MEASURE: melting point

Solved entries (count: 4):
CC1(C)OC(=S)Nc2ccc(-c3ccc(F)c(F)c3)cc21 | 209 to 211 °C
CCCn1c(=O)c2c(nn3cc(C4CC4)[nH]c23)n(Cc2ccccc2)c1=O | 264 to 265 °C
Nc1cccc(-c2ccc(CCN3CCC4(CCCC4)CC3)cc2)n1 | 130 to 132 °C
NNC(=O)c1ncnc2[nH]ccc12 | 252 to 254 °C

query: Sample CN1CCC23CC(=O)C=CC2C1Cc1cccc(Oc2nnnn2-c2ccccc2)c13 (stereo unspecified) — what was its melting point?
result: 172 to 174 °C

query: Query: melting point; subject: CCCC(=N)Nc1ccccc1N1CCOCC1
result: 131 °C

query: Item under review: COC(=O)CCc1ccc(OCC(C)NCC(O)c2ccccc2)cc1 (stereo unspecified) . Reported melting point?
result: 103 to 104 °C

query: So what does the record say about melting point for Cc1ccccc1-c1cc(C#N)c(SSc2[nH]c(-c3ccccc3C)cc2C#N)[nH]1 ?
result: 248 to 249 °C

query: # query: melting point of entry Fc1cc(Cn2cncn2)cc2c1Cc1c(-c3ccsc3)n[nH]c1-2
result: 236 to 239 °C

query: # query: melting point of entry CCOC(=O)C(O)C1OC(n2cnc3c(N)ncnc32)C(O)C1O (stereo unspecified)
result: 265 to 268 °C

query: Recorded melting point of ONCc1ccccc1 , please.
result: 56 to 57 °C

query: Sample O=C(O)[C@H]1CCCN1C(=O)CCCc1ccccc1 — what was its melting point?
result: 86 to 87.5 °C

query: I would be grateful if you could share the reported melting point for Cc1nc(-n2ccc(OCC3CC3)cc2=O)sc1C(=O)NCc1ccccc1 .
result: 218 to 220 °C

query: Give the measured melting point of NNC(=O)c1ccc(C(=O)O)cc1 .
result: 235 to 236 °C

query: Recorded melting point for CCC(=O)N1N=C(c2ccc([N+](=O)[O-])c(C)c2)c2cc3c(cc2CC1(C)C#N)OCO3 (stereo unspecified) , please?
result: 191 to 193 °C

* * *

Recorded melting point values for a group of molecules are listed next.

# count of solved cases: 6
CC(C)(C)c1cnc(CSc2cnc(NC(=O)Cc3ccc(OCCCC(=O)Nc4ccccn4)cc3)s2)o1 | 126 to 129 °C
Cc1ccc(S(=O)(=O)c2ccc(N3CCNCC3)cc2N)cc1 | 102 to 106 °C
CCC(Oc1ccc(Cl)c(C(F)(F)F)c1)C(=O)NCc1ccccc1 (stereo unspecified) | 93 to 95 °C
Cc1nc(C(=O)Nc2cccc(Cl)c2Cl)c(C)n1-c1ccccc1 | 127 to 129 °C
NC(=O)CCN1CC(O)CC1=O (stereo unspecified) | 99 to 100 °C
CC1SC(c2cccnc2)NC1=O (stereo unspecified) | 110 °C

query: melting point for O=C(Nc1cccc(Cl)c1)Nc1cnnc(Cl)c1 ?
result: 240 to 248 °C
